Tested on: oedema in mouse ear induced with PMA (phorbol myristate acetate)
experiment: Acute contact dermatitis: TPA-induced ear oedema in mice
Assay type: in vivo
reported.conditions: CD1 mice, 500 μg/ear topical in TPDS 30 minutes before 0.01% TPA, ear weight six hours later, vs TPA alone
Listing: Oedema (% inhibition) of selected compounds
Use % as the unit, but write only the number.

Incoming: Answer with the recorded Oedema (% inhibition) for the compound listed here: `CC[C@H]1OC(=O)[C@H](C)C(=O)[C@H](C)[C@@H](O[C@@H]2O[C@H](C)C[C@H](N(C)C(=O)c3ccccc3)[C@H]2O)[C@](C)(OC)C[C@@H](C)C(=O)[C@H](C)[C@H]2N(CCCCn3cnc(-c4cccnc4)c3)C(=O)O[C@]12C`
Outgoing: 81.8

Incoming: Write down Oedema (% inhibition) measured for item `CC[C@H]1OC(=O)[C@H](C)[C@@H](O[C@H]2C[C@@](C)(OC)[C@@H](O)[C@H](C)O2)[C@H](C)[C@@H](O[C@@H]2O[C@H](C)C[C@H](N(C)C)[C@H]2O)[C@](C)(O)C[C@@H](C)C(=O)[C@H](C)[C@@H](O)[C@]1(C)O`
Outgoing: 42

Incoming: Dear colleague, please send me the reported Oedema (% inhibition) for CCC1OC(=O)C(C)C(=O)C(C)C(OC2OC(C)CC(N(C)C(C)=O)C2O)C(C)(OC)CC(C)C(=O)C(C)C2N(CCCCn3cnc(-c4cccnc4)c3)C(=O)OC12C (centres unmarked) when you can.
Outgoing: 81.7

Incoming: Kindly indicate its recorded Oedema (% inhibition). Item: `CC[C@H]1OC(=O)[C@H](C)[C@@H](O[C@H]2C[C@@](C)(OC)[C@@H](O)[C@H](C)O2)[C@H](C)[C@@H](O[C@@H]2O[C@H](C)C[C@H](N(C)C)[C@H]2O)[C@](C)(O)C[C@@H](C)CN(C)[C@H](C)[C@@H](O)[C@]1(C)O`
Outgoing: 40

Incoming: Note down Oedema (% inhibition) recorded for `CC[C@H]1OC(=O)[C@H](C)C(=O)[C@H](C)[C@@H](O[C@@H]2O[C@H](C)C[C@H](N(C)C)[C@H]2O)[C@](C)(OC)C[C@@H](C)C(=O)[C@H](C)[C@H]2N(CCCCn3cnc(-c4cccnc4)c3)C(=O)O[C@]12C`
Outgoing: 79.7
